# SYSTEM: UniProtKB P34972
# TEST_PROTOCOL: Activity at human CB2 receptor expressed in CHO cells assessed as stimulated [35S]GTP-gamma-S binding relative to control
# Format: functional, cell-based
# Parameters: concentration or dose not given beside the values
READOUT_TYPE: Activity (%)

• CCCCCn1cc(C(=O)NC(C)C23CC4CC(CC(C4)C2)C3)c(=O)c2cc(Cl)ccc21 (single isomer, unassigned; (-)) = 86.1
• CCCCCn1cc(C(=O)NC23CC4CC(C)(CC(C)(C4)C2)C3)c(=O)c2cccnc21 = 124
• CCCCCn1c(C)c(C(=O)NC(C)c2ccccc2)c(=O)c2ccccc21 (single isomer, unassigned; (-)) = 186
• CCCCCn1cc(C(=O)NC2CCCc3ccccc32)c(=O)c2ccccc21 (single isomer, unassigned; (+)) = 183
• CCCCCn1cc(NC(=O)c2cccc3ccccc23)c(=O)c2ccccc21 = 139
• CC12CC3CC(C)(C1)CC(NC(=O)c1cn(CCC4CCCCC4)c4ccccc4c1=O)(C3)C2 = 157
• CCCCCn1cc(C(=O)NC(C)C23CC4CC(CC(C4)C2)C3)c(=O)c2ccccc21 (racemic) = 156
• CCCCCn1cc(C(=O)NC(C)C23CC4CC(CC(C4)C2)C3)c(=O)c2cc(Cl)ccc21 (single isomer, unassigned; (+)) = 76.7
• CCCCCn1cc(C(=O)NC(C)C23CC4CC(CC(C4)C2)C3)c(=O)c2ccc(Cl)cc21 (single isomer, unassigned; (+)) = 42.7
• CCCCCCC(C)(C)c1ccc(C2CC(O)CC[C@H]2CCCO)c(O)c1 (single isomer, unassigned) = 230
• CCCCCn1cc(C(=O)NC(C)C23CC4CC(CC(C4)C2)C3)c(=O)c2ccccc21 (single isomer, unassigned; (+)) = 172
• CCCCCn1cc(NC(=O)C23CC4CC(CC(C4)C2)C3)c(=O)c2ccccc21 = 120
• CCCCCn1c(C)c(C(=O)NC23CC4CC(C)(CC(C)(C4)C2)C3)c(=O)c2ccccc21 = 128
• CCCCCn1cc(C(=O)NC23CC4CC(C)(CC(C)(C4)C2)C3)c(=O)c2cccc(Cl)c21 = 187
• CC12CC3CC(C)(C1)CC(NC(=O)c1cn(Cc4ccc(F)cc4)c4ccccc4c1=O)(C3)C2 = 157
• CCCCCn1cc(C(=O)NC2CCCc3ccccc32)c(=O)c2cc(Cl)ccc21 (racemic) = 98.5
• CCCCCn1c(-c2ccccc2)c(C(=O)NC23CC4CC(C)(CC(C)(C4)C2)C3)c(=O)c2ccccc21 = 27.1

###

Below are pKi values measured for UniProtKB P34972.
pKi: −log10 of the molar value.
READOUT_TYPE: pKi

• CCCCCn1cc(C(=O)NC(C)C23CC4CC(CC(C4)C2)C3)c(=O)c2ccc(Cl)cc21 (single isomer, unassigned; (+)) = 6.58
• CCCCCn1cc(C(=O)NC23CC4CC(C)(CC(C)(C4)C2)C3)c(=O)c2cccnc21 = 7.63
• CCCCCn1cc(CNC23CC4CC(CC(C4)C2)C3)c(=O)c2ccccc21 = 5.78
• CCCCCn1cc(NC(=O)CCc2ccccc2)c(=O)c2ccccc21 = 5.95
• CC12CC3CC(C)(C1)CC(NC(=O)c1cn(CCN4CCOCC4)c4ccccc4c1=O)(C3)C2 = 6.66
• CCCCCn1cc(C(=O)NC23CC4CC(C)(CC(C)(C4)C2)C3)c(=O)c2ncccc21 = 6.59

###

Activity for assorted compounds
# SYSTEM: Cannabinoid receptor 2 (Homo sapiens, UniProt P34972)
# Sequence (P34972 whole entry): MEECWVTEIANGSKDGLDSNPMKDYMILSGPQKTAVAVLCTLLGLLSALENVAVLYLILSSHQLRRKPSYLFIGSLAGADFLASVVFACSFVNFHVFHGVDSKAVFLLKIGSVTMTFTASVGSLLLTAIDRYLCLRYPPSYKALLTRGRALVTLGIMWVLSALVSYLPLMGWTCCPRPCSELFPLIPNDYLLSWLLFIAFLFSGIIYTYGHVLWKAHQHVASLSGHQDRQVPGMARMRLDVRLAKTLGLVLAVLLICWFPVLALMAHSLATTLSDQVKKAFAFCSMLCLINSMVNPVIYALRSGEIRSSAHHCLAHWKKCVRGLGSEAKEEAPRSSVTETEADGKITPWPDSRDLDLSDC
# TEST_PROTOCOL: Activity at human CB2 receptor expressed in CHO cells assessed as stimulated [35S]GTP-gamma-S binding relative to control
# Assay type: functional, cell-based
# Design: concentration or dose not given beside the values
READOUT_TYPE: Activity

* CCCCCn1cc(C(=O)NC(C)C23CC4CC(CC(C4)C2)C3)c(=O)c2cc(Cl)ccc21 (racemic) | 97.3%
* CCCCCn1cc(C(=O)NC(C)C23CC4CC(CC(C4)C2)C3)c(=O)c2ccc(Cl)cc21 (single isomer, unassigned; (-)) | 53.5%
* CC12CC3CC(C)(C1)CC(NC(=O)c1cn(CCc4ccccc4)c4ccccc4c1=O)(C3)C2 | 141%
* CCCCCn1cc(C(=O)NC23CC4CC(C)(CC(C)(C4)C2)C3)c(=O)c2cc(Cl)ccc21 | 49.6%
* CC12CC3CC(C)(C1)CC(NC(=O)c1cn(CCCc4ccccc4)c4ccccc4c1=O)(C3)C2 | 98.8%
* CC12CC3CC(C)(C1)CC(NC(=O)c1cn(CCN4CCOCC4)c4ccccc4c1=O)(C3)C2 | 141%
* CCCC(C)(C)c1ccc2c(c1)OC(C)(C)[C@@H]1CC=C(C)C[C@@H]21 | 201%
* CCCCCn1cc(C(=O)NC(C)C23CC4CC(CC(C4)C2)C3)c(=O)c2ccccc21 (stereo in doubt; 24) | 175%
* CCCCCn1nc(C(=O)NC23CC4CC(C)(CC(C)(C4)C2)C3)c(=O)c2ccccc21 | 109%
* CCCCCn1cc(C(=O)NC23CC4CC(C)(CC(C)(C4)C2)C3)c(=S)c2ccccc21 | 65.6%
* CCCCCn1cc(C(=O)NC23CC4CC(C)(CC(C)(C4)C2)C3)c(=O)c2ncccc21 | 170%
* CCCCCn1cc(C(=O)NCC23CC4CC(CC(C4)C2)C3)c(=O)c2ccccc21 | 155%
* CCCCCn1cc(C(=O)NC2CCCc3ccccc32)c(=O)c2cc(Cl)ccc21 (single isomer, unassigned; (+)) | 124%
* CCCCCn1c(-c2ccccc2)c(C(=O)NC23CC4CC(CC(C4)C2)C3)c(=O)c2ccccc21 | 26.5%
* CCCCCn1cc(C(=O)NC23CC4CC(C)(CC(C)(C4)C2)C3)c(=O)c2cnccc21 | 136%
* CCCCCn1cc(C(=O)NC(C)C23CC4CC(CC(C4)C2)C3)c(=O)c2ccc(Cl)cc21 (racemic) | 56.3%
* CCCCCn1cc(C(=O)NC23CC4CC(C)(CC(C)(C4)C2)C3)c(=O)c2ccc(Cl)cc21 | 51.6%
* CCCCCn1cc(NC(=O)CCc2ccccc2)c(=O)c2ccccc21 | 183%

###

# SYSTEM: Cannabinoid receptor 2 (Homo sapiens, UniProt P34972)
# TEST_PROTOCOL: Displacement of [3H]CP-55940 from human CB2 receptor expressed in CHO cells
# Type: cell-based
# Design: concentration or dose not given beside the values
Activity for assorted molecules
READOUT_TYPE: Activity (%)

* O=C(c1cn(Cc2ccc(Cl)cc2)c2ccccc2c1=O)c1cccc2ccccc12 | 96.5
* CCCCCn1cc(C(=O)NCC23CC4CC(CC(C4)C2)C3)c(=O)c2ccccc21 | 87.2
* CCCCCn1cc(C(=O)NC(C)C23CC4CC(CC(C4)C2)C3)c(=O)c2ccc(Cl)cc21 (racemic) | 102
* CCCCCn1c(C)c(C(=O)NCCc2ccccc2)c(=O)c2ccccc21 | 57.3

###

# SYSTEM: Cannabinoid receptor 2 (Homo sapiens)
pKi: −log10 of the molar value.
Assign true (1) whenever pKi does not fall below 7; assign false (0) whenever it does.

- O=C(c1cn(CCCc2ccccc2)c2ccccc2c1=O)c1cccc2ccccc12: false (0)
- CCCCCn1c(C)c(C(=O)NC(C)c2ccc3ccccc3c2)c(=O)c2ccccc21 (single isomer, unassigned; (-)): false (0)
- CCCCCn1c(C)c(C(=O)NC(C)c2cccc3ccccc23)c(=O)c2ccccc21 (single isomer, unassigned; (-)): false (0)
- CCCCCn1cc(C(=O)NC(C)C23CC4CC(CC(C4)C2)C3)c(=O)c2ccc(Cl)cc21 (single isomer, unassigned; (-)): true (1)
- CCCCCCn1cc(C(=O)c2cccc3ccccc23)c(=O)c2ccccc21: false (0)
- CCCCCn1cc(C(=O)NC23CC4CC(C)(CC(C)(C4)C2)C3)c(=O)c2cnccc21: true (1)
- CCCCCn1cc(C(=O)c2c3ccccc3cc3ccccc23)c(=O)c2ccccc21: false (0)
- CCCCCn1cc(C(=O)NC(C)C23CC4CC(CC(C4)C2)C3)c(=O)c2ccccc21 (racemic): true (1)

###

# SYSTEM: Cannabinoid receptor 2 (Homo sapiens, UniProt P34972)
# TEST_PROTOCOL: Displacement of [3H]CP-55940 from human CB2 receptor expressed in CHO cells
# Type: cell-based
# Design: concentration or dose not given beside the values
Binary label based on Activity with cut-off 80%: below gives class 1, not below gives class 0.

* CCCCCn1cc(C(=O)c2ccc3ccccc3c2)c(=O)c2ccccc21 | class 1
* CCCCCn1cc(NC(=O)CCc2ccccc2)c(=O)c2ccccc21 | class 0
* CCCCCn1c(C)c(C(=O)NC(C)c2ccccc2)c(=O)c2ccccc21 (single isomer, unassigned; (-)) | class 0
* CCCCCn1c(C)c(C(=O)NC(C)c2ccc3ccccc3c2)c(=O)c2ccccc21 (single isomer, unassigned; (-)) | class 1
* CC(NC(=O)c1cn(CCN2CCOCC2)c2ccccc2c1=O)c1ccccc1 (single isomer, unassigned; (-)) | class 1
* CCCCCn1cc(C(=O)c2cccc3ccccc23)c(=O)c2ccccc21 | class 0
* CC12CC3CC(C)(C1)CC(NC(=O)c1cn(Cc4ccc(Cl)cc4)c4ccccc4c1=O)(C3)C2 | class 1
* CC12CC3CC(C)(C1)CC(NC(=O)c1cn(Cc4ccc(F)cc4)c4ccccc4c1=O)(C3)C2 | class 0
